Reference source: a protein production outcome set (Wang et al. 2014)

- procedure.details: label from the status in PepcDB records;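 further: failed if final PepcDB status was selected cloned or expressed and not failed if soluble or beyond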
recorded.endpoint: protein production

Below, each entry is followed by its recorded protein production result.
chain.sequence | experimental.value
MVSYDRHINHVRLFVDGILDSSFLTEGITKTNDSPIYIGGAPYSVDSCDFPFLLDELKIYNLSIGTDQIQSEASASLSGIEPSFIYFGCFHCDMNTAILSCPNNYHLCNKMELYIGVYNVLRKFSLDVNNIILPYSSESNLGIGICCTDI | failed
MIGGSIISSNLLIRIFHGSCRKIIAFLFTILSLTLISGVLIYFVEGETGGFISRSSSVYWAITTLLTTGYGDTVLQTNFGRLVASVVKVLGFSIIVAPIVIIITEIYKSLSETSRKTKSLTISPFPLIWRYLNTQYFRML | failed
NFSNRVQDVIRLSREEALRLGHDYIGTEHLLLGLIREGEGIGAKILKNLKVDLFQLKQKIEENTHPKVPATQMGNVPLTKQAEKVLKITYLEAKICKSTIIGTEHLLLSILKGDDNIAAQILEQFGVTYDQVRDELMTITT | not failed
MAVNACLSPPEMMAVRPGEGVPNSKSTQGKTRLYLTKPSWIVRTQSGAKTCMKSKAKGRCVICHGSGRVDCFNCCGKGRTNCVDVEMLPRGEWPKWCKSCGGSGLSDCSRCLGTGERASFFFLWFDILIVMSSVALPAMSCRSSGEQVKEIRVCTNRTCRRQGSFQILETLTALAPPELRVTHCACLGRCGSGPNLVALPQGLILRHCATPSRAAEILFSLCGDGREASSSSAVTDALTALALTNNALSQIDAGNFSEAEALLTQALELKPYGGLHRIFKHRSVAKLGMLDYSGALEDISQALALAPNYSEPYICQGDVYVAKGQYDLAEKSYLTCLEIDPSLRRSKPFKARIAKLQQKVVELDVT | failed
MVRCVRLVEAGSVVRYLSTSICRPVVDAGSRALCLQEWADSQQVKEKQYSRDVQRAAALNIYRIPPSSRKPALCPTPRDRLEYDEDRLEHIAYVRARELHTLEVTGLETVAQSKAHVASLEGLIPEDKVVLLAGSPLQNEATLGQCGVEALTTLEVVGRRLGGNNCLSLQVNPVQPARYLWTTLHSSKQGEPNSSANHRCS | failed

# next sequence below
input: Which protein production value belongs to MNVIRLKEDKFREALRLSEYAFQYKVDEDRLQQQITKMKESHEVYGIMEGENLAAKLHLIPFHIYIGKEKFKMGGVAGVATYPEYRRSGYVKELLQHSLQTMKKDGYTVSMLHPFAVSFYRKYGWELCANLLVCHMTKSDLVMKKQVNGTVKRFNKESHPEEVEKLYETFAELFSGMLVRNEKWWLQAVYDDLTLAIYYDENQTAAGYMLYKIENYKMTVEEFVPLHNEARNGLWNFICQHDSMIKDLEMTVSENEPLLYTLQEPRVKTEIKPYFMGRIVDVEQFLKQYELNWNNVQQEVILHITDSFAQWNNITVRIANHEITIIEEPIDKGIKLDINALSTILFGYRRPLELNELELISGSEEEIRAFESVVPVRKPFIYDFF ?
output: not failed

---

- procedure.details: label from the status in PepcDB records
recorded.endpoint: protein production

Below, each entry is followed by its recorded protein production result.
chain.sequence | recorded.endpoint | experimental.value
MPTPFDVTILGGGLAGRLCAWQLAQTGVPPARIAVVERGARDGSGSAAYVAAAMLAPLAEAAVADRFVVELGLASLTLWRDWLPMLRTPVFFQQAGTLVVWHPADRGEASLFANHVRAATPPERIAADLRAVDAEGIGTLEPALAQRFSQGLYLAGEGQLDNRAVLDALATELEALGVQLRWNTAVADPHPQALAAAGLGARLVLDCRGLGAQPQWPQLRGLRGEVARIHAPDVTLTRPVRMLHPRYPIYIAPKPGHVYVIGATEIESDDMSPVSVRSTLELLSAAYAVHPAFGEARVLELCTQCRPTLPDHRPAIRWDGAGTLSVNGLYRHGYMIAPAVAQAAVAAAHALLDGRAIDAPASAWPGLFAAPASPEPVLPLEHHHHHH | protein production | not failed
MLLVMGAHESGLDRARLQSLYEQLVATNEDETEKLAASGHSTGLVASEWARFLAPFDFGYRLVALQRESKRVAAALTRALYGIDTSGASEHDPLWAVEHRVLPVPVTDRLLFCEMRFLLVLALSRRLWMRLERVDPLGQENPFPRDAEIIERVEDLARQSRERLALLAERSPEALNAGKQEAHDCIEDLRTKETRAAEQVAGFAQALGDAALLEKVWHALVDEIAQNRQLNHALLQTLCQWVLMLIGADTEVPSSASCSDE | protein production | not failed
MDGGFVRVCLLASGSKGNSLFVESDGTRVLIDAGLSAREIVRRLAVIEVEPADLDGLFISHEHVDHVRGVGVLARKYRLPVHVSYPTHHEVREGFGDAPVVEFESGYSFGFRDLLIDPFPITHDACDPVGFTIESKEGKVGIATDLGTATRLVADKLKRCRVLVLESNHDEEMLMGGPYPWHLKQRIKSRHGHLSNNDSAALLAEVLHPGLEGLFLAHLSEVNNDPAVAKEVAENLLVAQTTCSPRLIVGDQYRPSETLTL | protein production | failed
MVKTAVLMATYNGEIFISEQLDSIRQQTLKPDYVLLRDDCSTDETVNVVNNYIAKHELEGWKIVKNDKNLGWRLNFRQLLIDVLAYEVDYVFFSDQDDIWYLDKNERQFAIMSDKPQIEVLSADVDIKTMSTEASVPHFLTFSSSDRISQYPKVYDYQTFRPGWTIAMKRDFAQAIADNWTFGANISHDNLIETTASIIGNGYNLNESVGVHIRYGGNASGNSKFVLNWKSPKTQHITGLKTFVDFYETMQKVVNKYQNDVALNQRLAFEKERLEASKLSLIHNSAFVIKNWRLYNSNSGRMRDLLFAFKKLEHHHHHH | protein production | not failed
MEVYTTENEQVDVLRRFLAENGKALVVGVVLGVGALVGWRFWQSHQNDSVQAASASYQQVTEQLAEGKAEAIASTEKFTAENKNTYGALASLELARHYVDQKDFAKAVQQLVQAQSQTKDADLLAVVNLRLARVQLQENKADDALKTLDAIKLEGWASQAAEVRGDILASKGDNQAARDAYNKGLSSNPSQAQQALLRMKLNNLSS | protein production | failed

Here are 2 sequences. What values of protein production were reported for them?
1. PRTVKELTVSAGDNLIITLPDNEVELKAFVAPAPPVETTYNYEWNLISHPTDYQGEIKQGHKQTLNLSQLSVGLYVFKVTVSSENAFGEGFVNVTVKPAR
2. MKDLIKVQQKLIPDLIDKMYRRFYILSTISQNQPVGRRSLSEHMDMTERVLRSETDMLKKQELIRVKPTGMEITNEGTEVLAQLGEYFNVYSDDHKLASAIKDKFHIKDVHVIPGDSDSNRTVKREMGQQAGQLLEGILYEDAIVSVTGGSTMACVSESIHLLPFNVFFVPARGGLGENVVYQANTIASSMAQQAGGYYTTLYVPDNVSESTYDTLMLEPSVMHTLDKIKQANITIHGIGDALKMAHRRQSSQNVIDNLQHHQAVGEAFGYYFDAQGQIVHKVKTIGLQLEDLENKDFIFAVAGGQSKGEAIKAYLSIAPENTVLITDEAAAKVILQ

output:
1. not failed
2. not failed

---

- procedure.details: label from the status in PepcDB records
recorded.endpoint: protein production

Below, each entry is followed by its recorded protein production result.
chain.sequence | protein production
QKGRVETRRVVHIMDFQRGKNLRYQLLQLVEPFGVISNHLILNKINEAFIEMATTEDAQAAVDYYTTTPALVFGKPVRVHLSQKYKRIK | not failed
MNTRAPAVEARQLIKTYPGDVTALSGMDITVEPGTVFGLLGPNGAGKSTTVKILTTLARPDSGTATVAGHDVLRHPDRVRRAIGVVAQSSGADPVATGRENLRLQGRLHGLKGAGLSRRVAELLDRFKLADAAGRQVKGYSGGMRRRLDVALGLVHRPEVLFLDEPTTGLDPEARTAMWDEIARLAGDEGLTILLTTHYLEEADRLAERIAIVDRGRVVVEGTPDGLKGELRGDAIHLELREAVGQAGRTLLKGSLGGVPGVHEVLFDDAQGRRVSVRADDGAAAMPALLGALERAGVGVAAATVARPSLDDVYLRHAGRRYSEAEAEGADSLALAGATGGTRLEHHHHHH | failed
MLYHKLGYVQSAQQTLREVMTIWQAWFKALKAYRKNPARFTGRPRMPRYLHKSQRHTFYVTNQNAQIVRKDEQDKGYLVIKKLGIKIKLASADIKKIGRVAFKPVANGYKVIVPYKTKQKIKYLPDNGKYLGIDPGIDNAFACVSNTGARPLLINGRGIKSVNQYYNKKRSELKRLQAKYHQLEKLISTKQGLKPVYQETKAMKRITAWRNDKIRQFAHKASKRIVDYALSCDANTIVIGKNKSWKRSFEMGKRNNQNFIGIPHQVMIDMIKYKANLAGITVIQTNESYTSQISALDHEQPCWNNGNKSRKKQRKSPVNRRIKRGLFKADNGTLINADINGALQIIKKVFPNFSLDDGIVGAVLRPFKWSPTI | failed
MNIVYLLMLSLILFSIGLYGISTSNVGIKMLISLEIIINSAILAGVSISSFYFSTGVLIFVLFAIAIGVIESAVGIAILTMVYKKYGRITISLLKEIKW | failed

Here are 3 sequences. What values of protein production were reported for them?
1. MSLDKAIKEVRGNGKLKVAVFSDPDCPFCKRLEHEFEKMTDVTVYSFMMPIAGLHPDAARKAQILWCQPDRAKAWTDWMRKGKFPVGGSICDNPVAETTSLGEQFGFNGTPTLVFPNGRTQSGYSPMPQLEEIIRKNQQEGHHHHHH
2. MKFVKIALIVAVVAIALFAAKQTGILEIITDIKSLQDWIASFGVWGYAVFVAAFVFACVFLLPGSAFTIVAGIVFGPIKGGILALFSATLGAVAAFIVARFLLRNTIMKKFGDNPIFKKIDDGVAANGTSFLILTRLVPVFPFSLQNYAYGLTSLNLGTYALVSLLTMAPGAFIFAYMAGDIATNGVSVMLLVKFAVAGLVLFGMSLIPKYIAKKKGINMEELAK
3. MARKKITLVGAGNIGGTLAHLALIKQLGDVVLFDIAQGMPNGKALDLLQTCPIEGVDFKVRGTNDYKDLENSDVVIVTAGVPRKPGMSRDDLLGINIKVMQTVGEGIKHNCPNAFVICITNPLDIMVNMLQKFSGVPDNKIVGMAGVLDSARFRTFLADELNVSVQQVQAYVMGGHGDTMVPLTKMSNVAGVSLEQLVKEGKLKQERLDAIVSRTRSGGGEIVALLKTGSAYYAPAAAGIQMAESFLKDKKMILPCAAKVKAGMYGLDEDLFVGVPTEISANGVRPIEVEISDKEREQLQVSINAIKDLNKAAAEILAK

output:
not failed
failed
not failed
